Each item that follows carries a reported PBM E-score.
# target_or_system: Vhr1 (UniProt P40522)
# Sequence: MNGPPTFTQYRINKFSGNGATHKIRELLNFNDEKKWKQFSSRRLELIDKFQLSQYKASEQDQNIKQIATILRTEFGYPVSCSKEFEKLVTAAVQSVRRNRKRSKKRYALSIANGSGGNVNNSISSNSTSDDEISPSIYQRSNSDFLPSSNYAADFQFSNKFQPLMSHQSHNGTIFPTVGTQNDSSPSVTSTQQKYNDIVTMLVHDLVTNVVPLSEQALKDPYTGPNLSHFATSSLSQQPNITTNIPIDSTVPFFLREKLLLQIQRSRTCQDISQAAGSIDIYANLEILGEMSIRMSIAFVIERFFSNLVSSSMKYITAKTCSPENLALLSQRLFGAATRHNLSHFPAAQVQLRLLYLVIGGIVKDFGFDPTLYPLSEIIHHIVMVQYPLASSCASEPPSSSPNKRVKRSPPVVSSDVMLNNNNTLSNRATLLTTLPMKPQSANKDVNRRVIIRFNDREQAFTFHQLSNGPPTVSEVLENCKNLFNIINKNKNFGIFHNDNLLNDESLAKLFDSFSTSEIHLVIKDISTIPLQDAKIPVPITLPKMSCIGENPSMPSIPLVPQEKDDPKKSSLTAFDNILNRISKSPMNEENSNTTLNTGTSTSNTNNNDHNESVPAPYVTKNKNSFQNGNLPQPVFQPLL
# assay_overview: PBM E-score (8-mer binding enrichment) (E-score (-0.5 to 0.5)); higher = stronger / more preferred TF binding
# reported_conditions: protein concentration: 200 nM; construct: GST-full length
Over roughly 33,000 sequences, “E-score (-0.5 to 0.5)” has its median near -0.012; the highest 2% begin near 0.27. Shown is part of a subset that was picked to be rich in the highest values.
API note: the answer field is a bare number with no unit suffix.

Below are worked cases with known answers.
CATTAGCA	-0.152
CCTGATTC	0.367
CAGAGTCA	0.344
GGAATTCC	-0.279
CAGGGTCG	0.025

CCTGATTA tested on Vhr1 (UniProt P40522) gave PBM E-score: 0.158

Value sought: PBM E-score, system Vhr1 (UniProt P40522), item GGAAGTCC . Result: -0.212

# value of PBM E-score, Vhr1 (UniProt P40522), item CCTGATGC = -0.0265

Entry GATTTTGA , tested on Vhr1 (UniProt P40522), has a reported PBM E-score of 0.0345

Given the sequence GCAAGTCA and test system Vhr1 (UniProt P40522), the measured PBM E-score is 0.279

Let me check: AAAGGTGC , system Vhr1 (UniProt P40522), measured PBM E-score is -0.162

* * *

# target_or_system: Vhr1 (UniProt P40522)
# Sequence: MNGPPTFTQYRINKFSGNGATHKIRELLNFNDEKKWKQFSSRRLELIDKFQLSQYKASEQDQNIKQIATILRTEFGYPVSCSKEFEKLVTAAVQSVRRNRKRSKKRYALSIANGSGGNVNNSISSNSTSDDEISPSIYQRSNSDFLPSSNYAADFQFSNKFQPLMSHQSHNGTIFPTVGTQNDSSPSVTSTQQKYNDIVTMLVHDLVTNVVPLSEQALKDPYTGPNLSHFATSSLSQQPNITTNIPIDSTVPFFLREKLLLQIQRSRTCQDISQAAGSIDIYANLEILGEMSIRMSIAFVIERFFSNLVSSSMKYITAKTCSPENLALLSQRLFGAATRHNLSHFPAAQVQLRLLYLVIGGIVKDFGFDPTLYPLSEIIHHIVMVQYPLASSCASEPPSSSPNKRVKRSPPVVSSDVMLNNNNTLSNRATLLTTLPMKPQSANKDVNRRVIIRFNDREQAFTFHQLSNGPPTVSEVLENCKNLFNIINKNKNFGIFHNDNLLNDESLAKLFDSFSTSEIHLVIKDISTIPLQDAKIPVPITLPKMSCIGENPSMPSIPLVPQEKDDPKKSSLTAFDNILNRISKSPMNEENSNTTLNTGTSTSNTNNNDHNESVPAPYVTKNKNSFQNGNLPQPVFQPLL
# assay_overview: PBM E-score (8-mer binding enrichment) (E-score (-0.5 to 0.5)); higher = stronger / more preferred TF binding
# reported_conditions: protein concentration: 200 nM; construct: GST-full length
Whole data set: some 33,000 sequences, median “E-score (-0.5 to 0.5)” near -0.012, cut for the highest 2% near 0.27. For the sample, the highest values were picked, then their nearest neighbours and some sequences at random.
measured_parameter: PBM E-score

Previously resolved entries follow.
GAATTAGA	-0.172
CATTAGTC	0.257
CTAGTCAC	0.34
TATACTGA	0.309
AGGGGGCA	-0.151

The sequence AGTACTCA showed PBM E-score equal to 0.171

For this sequence ( CATACTCC ), measured PBM E-score is 0.125

Lab note: measured PBM E-score of CCATTCAG was -0.0511

FYI, the data here is from the supplement of paper PMC3334620.
